The compounds listed here are annotated with their EC50.
biological target: ERRγ (Homo sapiens); assay: ERRE luciferase reporter assay in HEK293 cells transfected with pcDNA3.1 ERRγ; details: HEK293 cells transfected with ERRE reporter construct and pcDNA3.1 ERRγ; compound for 24 hours; luciferase activity

FC(F)(F)c1ccc(-c2nnc(-c3ccccc3Cl)o2)cc1 [Entry 53] ... 1000 to 5000 nM
CC(C)(C)c1ccc(-c2nnc(-c3ccccc3N)s2)cc1 [Entry 1027] ... < 1000 nM
COc1ccc(-c2nnc(-c3ccc(Br)cc3)s2)cc1 [Entry 1018] ... 1000 to 5000 nM

Would you kindly look at the next entry?
Exam item: May I ask what EC50 has been recorded for COc1cccc(-c2nnc(-c3ccccc3)s2)c1[N+](=O)[O-] [Entry 1023] ?
Marked response: < 1000 nM

###

Molecular target: ERRγ (Homo sapiens, UniProt P62508)
Construct: expressed in transfected cells; host or cells: HEK293
Sequence (P62508 1-458): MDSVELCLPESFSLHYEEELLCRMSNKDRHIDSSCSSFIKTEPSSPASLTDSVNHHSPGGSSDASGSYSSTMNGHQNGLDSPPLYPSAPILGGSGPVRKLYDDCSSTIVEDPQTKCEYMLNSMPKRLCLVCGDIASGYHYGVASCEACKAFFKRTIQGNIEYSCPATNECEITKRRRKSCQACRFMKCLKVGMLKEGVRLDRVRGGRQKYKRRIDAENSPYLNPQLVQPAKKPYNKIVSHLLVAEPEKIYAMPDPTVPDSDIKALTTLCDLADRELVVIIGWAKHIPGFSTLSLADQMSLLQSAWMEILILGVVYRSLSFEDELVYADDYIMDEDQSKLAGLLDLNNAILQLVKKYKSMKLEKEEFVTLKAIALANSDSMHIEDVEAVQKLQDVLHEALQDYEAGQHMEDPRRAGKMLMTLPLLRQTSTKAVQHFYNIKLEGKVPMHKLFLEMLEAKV
Assay: ERRE luciferase reporter assay in HEK293 cells transfected with pcDNA3.1 ERRγ
Format: cell-based
Settings: HEK293 cells transfected with ERRE reporter construct and pcDNA3.1 ERRγ; compound for 24 hours; luciferase activity
pEC50: −log10 of the molar value.
Reported property: pEC50

These solved cases illustrate the format of a correct answer.
COc1ccc(-c2nnc(-c3ccc(N(C)C)cc3)o2)cc1 ... 5.30 to 6.00
Cc1ccccc1-c1nnc(-c2ccccc2)s1 ... > 6.00
O=[N+]([O-])c1cc(Br)ccc1-c1nnc(-c2ccccc2)s1 ... > 6.00

Exam item: # get_value(readout= pEC50, system= ERRγ (Homo sapiens, UniProt P62508)) for `CC(C)(C)c1ccc(-c2nnc(-c3ccccc3N)o2)cc1`
Marked response: > 6.00

Exam item: # get_value(readout= pEC50, system= ERRγ (Homo sapiens, UniProt P62508)) for `c1ccc(-c2nnc(C3CCCCC3)s2)cc1`
Marked response: > 6.00

Exam item: # get_value(readout= pEC50, system= ERRγ (Homo sapiens, UniProt P62508)) for `FC(F)(F)c1ccc(-c2nnc(-c3ccccc3)o2)cc1`
Marked response: 5.30 to 6.00

Exam item: # get_value(readout= pEC50, system= ERRγ (Homo sapiens, UniProt P62508)) for `COC(=O)c1cccc(-c2nnc(-c3ccccc3Cl)s2)c1`
Marked response: > 6.00

Exam item: # get_value(readout= pEC50, system= ERRγ (Homo sapiens, UniProt P62508)) for `O=[N+]([O-])c1ccc(-c2nnc(-c3ccccc3[N+](=O)[O-])o2)cc1`
Marked response: 5.30 to 6.00

Exam item: # get_value(readout= pEC50, system= ERRγ (Homo sapiens, UniProt P62508)) for `COc1ccc(-c2nnc(-c3ccc(C)o3)s2)cc1`
Marked response: > 6.00

Exam item: # get_value(readout= pEC50, system= ERRγ (Homo sapiens, UniProt P62508)) for `c1ccc(Cc2nnc(-c3ccccc3)s2)cc1`
Marked response: 5.30 to 6.00

Exam item: # get_value(readout= pEC50, system= ERRγ (Homo sapiens, UniProt P62508)) for `COc1ccc(-c2nnc(-c3cccc([N+](=O)[O-])c3)o2)cc1`
Marked response: > 6.00

Exam item: # get_value(readout= pEC50, system= ERRγ (Homo sapiens, UniProt P62508)) for `FC(F)(F)c1cccc(-c2nnc(-c3ccccn3)s2)c1`
Marked response: > 6.00
